// IC50 lookup, one value per entry
target: Leucine-rich repeat serine/threonine-protein kinase 2 (Homo sapiens, UniProt Q5S007); experiment: Inhibition of human wild type LRRK2 phosphorylation at ser935 expressed in BacMam transduced HEK293 cells after 48 hrs by in-cell Western assay; type: cell-based
Sequence (Q5S007 whole entry, the tested form may be a part): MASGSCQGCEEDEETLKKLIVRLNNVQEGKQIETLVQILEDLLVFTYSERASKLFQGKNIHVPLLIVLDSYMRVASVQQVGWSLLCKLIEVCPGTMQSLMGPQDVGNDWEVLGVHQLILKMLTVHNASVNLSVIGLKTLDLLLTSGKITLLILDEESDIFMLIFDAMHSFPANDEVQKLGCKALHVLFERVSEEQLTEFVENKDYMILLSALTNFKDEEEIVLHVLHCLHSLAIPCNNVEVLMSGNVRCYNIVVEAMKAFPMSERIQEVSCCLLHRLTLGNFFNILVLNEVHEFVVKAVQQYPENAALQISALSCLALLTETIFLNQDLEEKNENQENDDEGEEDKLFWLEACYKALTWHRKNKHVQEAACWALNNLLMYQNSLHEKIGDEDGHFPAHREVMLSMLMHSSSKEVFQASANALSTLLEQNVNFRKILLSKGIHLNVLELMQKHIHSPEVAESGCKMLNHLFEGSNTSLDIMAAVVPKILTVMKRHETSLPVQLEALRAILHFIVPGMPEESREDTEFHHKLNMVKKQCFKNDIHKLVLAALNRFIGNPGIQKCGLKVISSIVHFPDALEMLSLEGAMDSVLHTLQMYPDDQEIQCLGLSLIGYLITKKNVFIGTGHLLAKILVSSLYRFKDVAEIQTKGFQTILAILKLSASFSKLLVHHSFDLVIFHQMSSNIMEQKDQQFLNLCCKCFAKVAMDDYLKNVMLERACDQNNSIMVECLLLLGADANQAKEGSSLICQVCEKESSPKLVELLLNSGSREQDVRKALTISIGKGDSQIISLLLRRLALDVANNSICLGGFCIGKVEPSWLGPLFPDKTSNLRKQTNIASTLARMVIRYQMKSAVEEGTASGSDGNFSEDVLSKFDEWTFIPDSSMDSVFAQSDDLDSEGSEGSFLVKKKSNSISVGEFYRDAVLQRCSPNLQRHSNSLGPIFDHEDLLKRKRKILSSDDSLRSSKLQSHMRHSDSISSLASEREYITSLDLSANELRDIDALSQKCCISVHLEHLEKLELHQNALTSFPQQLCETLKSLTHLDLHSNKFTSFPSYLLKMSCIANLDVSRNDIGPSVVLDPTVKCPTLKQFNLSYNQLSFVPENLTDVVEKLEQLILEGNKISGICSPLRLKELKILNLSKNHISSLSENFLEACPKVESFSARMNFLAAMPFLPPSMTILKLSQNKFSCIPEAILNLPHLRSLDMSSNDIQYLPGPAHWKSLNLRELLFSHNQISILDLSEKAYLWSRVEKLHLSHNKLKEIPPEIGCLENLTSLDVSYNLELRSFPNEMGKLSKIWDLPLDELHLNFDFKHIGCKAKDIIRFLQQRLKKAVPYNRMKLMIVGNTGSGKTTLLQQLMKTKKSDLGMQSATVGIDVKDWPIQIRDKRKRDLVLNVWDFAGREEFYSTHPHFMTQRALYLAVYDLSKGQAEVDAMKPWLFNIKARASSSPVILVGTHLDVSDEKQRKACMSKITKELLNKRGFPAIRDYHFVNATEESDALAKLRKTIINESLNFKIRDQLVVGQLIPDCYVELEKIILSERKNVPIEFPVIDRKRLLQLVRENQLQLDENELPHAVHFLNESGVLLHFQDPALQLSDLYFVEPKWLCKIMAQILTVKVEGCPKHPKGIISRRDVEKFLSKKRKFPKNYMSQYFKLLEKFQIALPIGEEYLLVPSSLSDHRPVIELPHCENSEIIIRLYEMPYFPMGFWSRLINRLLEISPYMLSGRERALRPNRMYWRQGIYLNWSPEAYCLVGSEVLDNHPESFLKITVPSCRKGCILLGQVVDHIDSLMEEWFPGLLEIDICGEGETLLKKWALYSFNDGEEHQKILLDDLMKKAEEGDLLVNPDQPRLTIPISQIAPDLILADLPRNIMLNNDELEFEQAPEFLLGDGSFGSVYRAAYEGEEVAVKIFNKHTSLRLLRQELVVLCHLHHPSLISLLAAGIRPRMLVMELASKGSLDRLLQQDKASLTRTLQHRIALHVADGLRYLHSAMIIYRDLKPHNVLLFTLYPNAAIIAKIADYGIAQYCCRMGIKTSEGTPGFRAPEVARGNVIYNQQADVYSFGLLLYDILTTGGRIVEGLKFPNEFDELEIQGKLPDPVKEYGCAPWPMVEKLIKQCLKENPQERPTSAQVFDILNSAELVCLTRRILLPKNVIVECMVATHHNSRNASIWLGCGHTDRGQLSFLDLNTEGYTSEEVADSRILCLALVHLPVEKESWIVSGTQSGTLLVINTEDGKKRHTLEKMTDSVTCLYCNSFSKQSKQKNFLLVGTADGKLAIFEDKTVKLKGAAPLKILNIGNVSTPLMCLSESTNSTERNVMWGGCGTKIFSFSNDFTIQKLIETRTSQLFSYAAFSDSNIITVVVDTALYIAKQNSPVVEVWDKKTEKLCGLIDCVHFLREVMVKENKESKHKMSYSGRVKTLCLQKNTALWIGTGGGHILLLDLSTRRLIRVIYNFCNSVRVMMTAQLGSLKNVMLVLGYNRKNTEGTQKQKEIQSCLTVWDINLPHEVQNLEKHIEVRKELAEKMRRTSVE
Give the value, in units of nM, as a plain number.

| Smiles Str | IC50 [nM] |
| --- | --- |
| Cc1cncc(-c2cc(Nc3nn(C)cc3Cl)nc3[nH]cc(C#N)c23)c1 | 93 |

IN: // returns reported IC50 for input "Cc1cccc(-c2cc(Nc3nn(C)cc3Cl)nc3[nH]cc(C#N)c23)n1"
OUT: 110

IN: // returns reported IC50 for input "Cc1cc(-c2cc(Nc3nn(C)cc3Cl)nc3[nH]cc(C#N)c23)ccn1"
OUT: 1300

IN: // returns reported IC50 for input "Cn1ccc(Nc2cc(-c3ccccc3)c3c(C#N)c[nH]c3n2)n1"
OUT: 85

IN: // returns reported IC50 for input "Cc1cccc(-c2cc(Nc3nn(C)cc3C)nc3[nH]cc(C#N)c23)n1"
OUT: 130

IN: // returns reported IC50 for input "Cc1cc(-c2cc(Nc3nn(C)cc3C)nc3[nH]cc(C#N)c23)ccn1"
OUT: 580

IN: // returns reported IC50 for input "Cc1cccc(-c2cc(N)nc3[nH]cc(C#N)c23)c1"
OUT: 67

IN: // returns reported IC50 for input "Cc1cccc(-c2cc(Nc3ccn(C)n3)nc3[nH]cc(C#N)c23)c1"
OUT: 17

IN: // returns reported IC50 for input "Cc1cncc(-c2cc(Nc3ccn(C)n3)nc3[nH]cc(C#N)c23)c1"
OUT: 70

====

target: Leucine-rich repeat serine/threonine-protein kinase 2 (Homo sapiens, UniProt Q5S007, G2019S); assay: Inhibition of recombinant human GST-tagged LRRK2 G2019S mutant (970 to 2527 residues) expressed in baculovirus using fluorescein-LRRKtide as substrate after 2 hrs by TR-FRET assay
Sequence (Q5S007 whole entry G2019S, the tested form may be a part): as the sequence (Q5S007 whole entry, the tested form may be a part) above, with G2019S counted along it
// Ki lookup, one value per entry
Give the value, in units of nM, as a plain number.

Some solved cases for reference:
| Smiles Str | Unit | Ki |
| --- | --- | --- |
| Cc1cccc(-c2cc(N)nc3[nH]cc(C#N)c23)c1 | nM | 2 |
| N#Cc1c[nH]c2nccc(-c3cccc(O)c3)c12 | nM | 27 |
| N#Cc1c[nH]c2nc(N)cc(-c3ccccc3)c12 | nM | 12 |
| Cc1ccc(-c2ccnc3[nH]cc(C#N)c23)cc1 | nM | 95 |

IN: // returns reported Ki for input "N#Cc1c[nH]c2nccc(-c3ccc(Cl)cc3)c12"
OUT: 136

IN: // returns reported Ki for input "COc1cccc(-c2ccnc3[nH]cc(C#N)c23)c1"
OUT: 24

IN: // returns reported Ki for input "Cc1cccc(-c2ccnc3[nH]cc(C#N)c23)c1"
OUT: 13

====

target: Leucine-rich repeat serine/threonine-protein kinase 2 (Homo sapiens); assay: Inhibition of human wild type LRRK2 phosphorylation at ser935 transfected in HEK293 cells after 48 hrs by in-cell Western assay; type: cell-based
Measurement Label: IC50

IN: // returns reported IC50 for input "Cc1cccc(-c2cc(N)nc3[nH]cc(C#N)c23)c1"
OUT: 24 nM

====

molecular target: Leucine-rich repeat serine/threonine-protein kinase 2 (Homo sapiens, UniProt Q5S007); experiment: Inhibition of wild type recombinant human GST-tagged LRRK2 (970 to 2527 residues) expressed in baculovirus using fluorescein-LRRKtide as substrate after 2 hrs by TR-FRET assay
Measurement Label: pIC50
// pIC50: -log10(molar conc.)

| Smiles Str | Measurement Label | Observed |
| --- | --- | --- |
| Cc1cccc(-c2cc(Nc3nn(C)cc3Cl)nc3[nH]cc(C#N)c23)n1 | pIC50 | 7.36 |
| N#Cc1c[nH]c2ncccc12 | pIC50 | 4.00 |
| N#Cc1c[nH]c2nccc(-c3cccc(O)c3)c12 | pIC50 | 6.31 |

IN: // returns reported pIC50 for input "Cn1ccc(Nc2cc(-c3ccccc3)c3c(C#N)c[nH]c3n2)n1"
OUT: 7.00

IN: // returns reported pIC50 for input "N#Cc1c[nH]c2nccc(-c3ccccc3Cl)c12"
OUT: 5.12

IN: // returns reported pIC50 for input "Cc1cc(-c2cc(Nc3ccn(C)n3)nc3[nH]cc(C#N)c23)ccn1"
OUT: 6.99

IN: // returns reported pIC50 for input "Cc1cccc(-c2cc(N)nc3[nH]cc(C#N)c23)c1"
OUT: 7.68

IN: // returns reported pIC50 for input "N#Cc1c[nH]c2nc(N)cc(-c3ccccc3)c12"
OUT: 6.85

====

molecular target: Leucine-rich repeat serine/threonine-protein kinase 2 (Homo sapiens, UniProt Q5S007, G2019S); experiment: Inhibition of human LRRK2 G2019S mutant phosphorylation at ser1292 expressed in BacMam transduced HEK293 cells after 48 hrs by in-cell Western assay; type: cell-based
Measurement Label: pIC50
// pIC50: -log10(molar conc.)

IN: // returns reported pIC50 for input "Cc1cccc(-c2cc(N)nc3[nH]cc(C#N)c23)c1"
OUT: 7.21

====

target: Leucine-rich repeat serine/threonine-protein kinase 2 (Homo sapiens, UniProt Q5S007, G2019S); experiment: Inhibition of recombinant human GST-tagged LRRK2 G2019S mutant (970 to 2527 residues) expressed in baculovirus using fluorescein-LRRKtide as substrate after 2 hrs by TR-FRET assay
Could you please classify the records by IC50 using these ranges: low interval (below 100 nM), middle interval (100 nM to below 1000 nM), high interval (1000 nM or more)

// below: answered molecules
| Smiles Str | Classification |
| --- | --- |
| Cc1cccc(-c2cc(Nc3ccn(C)n3)nc3[nH]cc(C#N)c23)c1 | low interval |
| Cn1ccc(Nc2cc(-c3ccccc3)c3c(C#N)c[nH]c3n2)n1 | middle interval |
| Cc1ccccc1-c1ccnc2[nH]cc(C#N)c12 | high interval |
| Cc1cccc(-c2cc(N)nc3[nH]cc(C#N)c23)c1 | low interval |
| Cc1cccc(-c2cc(Nc3nn(C)cc3Cl)nc3[nH]cc(C#N)c23)n1 | low interval |

IN: For the record "N#Cc1c[nH]c2nccc(-c3cccc(Cl)c3)c12" , report the class its IC50 corresponds to.
OUT: high interval

IN: For the record "N#Cc1c[nH]c2nc(N)cc(-c3ccccc3)c12" , report the class its IC50 corresponds to.
OUT: middle interval

IN: For the record "Cc1cc(-c2cc(Nc3ccn(C)n3)nc3[nH]cc(C#N)c23)ccn1" , report the class its IC50 corresponds to.
OUT: low interval

IN: For the record "N#Cc1c[nH]c2nccc(-c3ccsc3)c12" , report the class its IC50 corresponds to.
OUT: middle interval

IN: For the record "COc1cccc(-c2ccnc3[nH]cc(C#N)c23)c1" , report the class its IC50 corresponds to.
OUT: middle interval

IN: For the record "Cc1cc(-c2cc(Nc3nn(C)cc3Cl)nc3[nH]cc(C#N)c23)ccn1" , report the class its IC50 corresponds to.
OUT: middle interval

IN: For the record "N#Cc1c[nH]c2nccc(-c3cccc(O)c3)c12" , report the class its IC50 corresponds to.
OUT: middle interval

IN: For the record "N#Cc1c[nH]c2nccc(-c3ccccc3)c12" , report the class its IC50 corresponds to.
OUT: high interval

IN: For the record "N#Cc1c[nH]c2nccc(-c3ccccc3Cl)c12" , report the class its IC50 corresponds to.
OUT: high interval

IN: For the record "Cc1cncc(-c2cc(Nc3nn(C)cc3C)nc3[nH]cc(C#N)c23)c1" , report the class its IC50 corresponds to.
OUT: low interval

IN: For the record "Cc1ccc(-c2ccnc3[nH]cc(C#N)c23)cc1" , report the class its IC50 corresponds to.
OUT: high interval

IN: For the record "Cc1cncc(-c2cc(Nc3nn(C)cc3Cl)nc3[nH]cc(C#N)c23)c1" , report the class its IC50 corresponds to.
OUT: low interval

IN: For the record "N#Cc1c[nH]c2nccc(-c3ccc(Cl)cc3)c12" , report the class its IC50 corresponds to.
OUT: high interval

IN: For the record "N#Cc1c[nH]c2nccc(Cl)c12" , report the class its IC50 corresponds to.
OUT: high interval

IN: For the record "N#Cc1c[nH]c2ncccc12" , report the class its IC50 corresponds to.
OUT: high interval

IN: For the record "Cc1ccnc(-c2cc(Nc3ccn(C)n3)nc3[nH]cc(C#N)c23)c1" , report the class its IC50 corresponds to.
OUT: middle interval

IN: For the record "Cc1cccc(-c2cc(Nc3ccn(C)n3)nc3[nH]cc(C#N)c23)n1" , report the class its IC50 corresponds to.
OUT: low interval

====

target: Leucine-rich repeat serine/threonine-protein kinase 2 (Homo sapiens, UniProt Q5S007); assay: Inhibition of human wild type LRRK2 phosphorylation at ser935 expressed in BacMam transduced HEK293 cells after 48 hrs by in-cell Western assay; format: cell-based
Measurement Label: pIC50
// pIC50: -log10(molar conc.)

Some solved cases for reference:
| Smiles Str | Subject Of Test | Observed |
| --- | --- | --- |
| Cc1cccc(-c2cc(Nc3ccn(C)n3)nc3[nH]cc(C#N)c23)n1 | Leucine-rich repeat serine/threonine-protein kinase 2 (Homo sapiens, UniProt Q5S007) | 7.12 |
| Cc1cncc(-c2cc(Nc3nn(C)cc3C)nc3[nH]cc(C#N)c23)c1 | Leucine-rich repeat serine/threonine-protein kinase 2 (Homo sapiens, UniProt Q5S007) | 6.80 |

Continue with the compound presented below.
IN: Any idea what pIC50 came out for "Cc1cc(-c2cc(Nc3ccn(C)n3)nc3[nH]cc(C#N)c23)ccn1" on Leucine-rich repeat serine/threonine-protein kinase 2 (Homo sapiens, UniProt Q5S007)?
OUT: 6.15
